Origin of measurements: patent US10233180B2

Test system: human colon cancer cell strain HCT-116
Assay: MTT assay, inhibition of tumor cell growth in vitro, 72 h
Assay type: cell-based
Settings: Homo sapiens, HCT-116, MTT, read-out: Antitumor proliferative activities of tumor cell (IC50, μM) HCT-116 (converted)
measured_property: IC50 (µM)

Here's what some known entries look like.
# compound, IC50, µM
rows = [
    ("Cn1ncc(Cl)c1-c1ccc(C(=O)N[C@@H]2CNCC[C@H]2c2ccc(F)c(F)c2)c(-c2csc(Cl)c2)c1", 0.69),
    ("Cn1ncc(Cl)c1-c1cc(C(=O)N[C@@H]2CNC(CCN3CCCCC3)C[C@H]2c2ccc(Cl)c(Cl)c2)oc1Cl (stereo partly shown)", 0.57),
]

P: Cn1nccc1-c1ccc(C(=O)N[C@@H]2CNCC[C@H]2c2cccc(F)c2)s1
Q: CC(=O)OCCC1C[C@@H](c2ccc(F)c(F)c2)[C@H](NC(=O)c2cc(-c3c(Cl)cnn3C)c(Cl)o2)CN1 (stereo partly shown)
R: CC(O)c1cnn(C)c1-c1ccc(C(=O)N[C@@H]2CNCC[C@H]2c2cccc(F)c2)s1 (stereo partly shown)
S: Cn1ncc(Cl)c1-c1ccc(C(=O)N[C@@H]2CNCC[C@H]2c2cccc(F)c2)cc1Cl
T: Cc1cnn(C)c1-c1cnc(C(=O)N[C@H]2CNCC[C@@H]2c2ccc(F)c(F)c2)cc1F [Compound 61]
Ordering criterion: IC50; begin with the maximum. Please list each label once, in the requested order.
T, S, Q, P, R
(T: 3.85 µM, S: 1.47 µM, Q: 0.92 µM, P: 0.44 µM, R: 0.08 µM)
